Molecular target: CLC-0 E166Q mutant (Torpedo marmorata, UniProt P21564, C212S/E166Q)
Sequence (P21564 whole entry E166Q/C212S): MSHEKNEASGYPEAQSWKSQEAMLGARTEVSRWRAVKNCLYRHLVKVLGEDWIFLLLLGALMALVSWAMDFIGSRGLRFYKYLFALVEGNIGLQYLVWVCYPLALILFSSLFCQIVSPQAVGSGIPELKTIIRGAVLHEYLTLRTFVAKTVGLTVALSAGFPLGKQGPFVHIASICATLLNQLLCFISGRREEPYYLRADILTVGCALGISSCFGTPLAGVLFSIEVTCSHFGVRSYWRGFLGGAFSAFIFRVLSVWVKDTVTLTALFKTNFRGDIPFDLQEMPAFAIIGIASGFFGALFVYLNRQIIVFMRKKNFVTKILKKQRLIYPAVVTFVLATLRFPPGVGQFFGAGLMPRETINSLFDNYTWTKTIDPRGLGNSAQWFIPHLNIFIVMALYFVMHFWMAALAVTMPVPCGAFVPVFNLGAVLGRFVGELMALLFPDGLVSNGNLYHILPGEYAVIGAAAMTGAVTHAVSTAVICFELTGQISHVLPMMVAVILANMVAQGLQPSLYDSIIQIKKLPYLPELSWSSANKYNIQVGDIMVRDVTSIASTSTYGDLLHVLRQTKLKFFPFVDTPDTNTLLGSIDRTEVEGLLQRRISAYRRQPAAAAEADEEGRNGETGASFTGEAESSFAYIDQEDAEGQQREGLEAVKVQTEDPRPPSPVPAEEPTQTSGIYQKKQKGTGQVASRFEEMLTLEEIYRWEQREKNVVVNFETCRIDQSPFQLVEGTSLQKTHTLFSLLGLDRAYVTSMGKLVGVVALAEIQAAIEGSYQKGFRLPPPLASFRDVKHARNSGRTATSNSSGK
Format: cell-based
Conditions: read-out: Apparent affinity (K1/2); −120 mV
Kindly state IC50 for each of the entries shown.
Numbers only, in mM.

> print(dat)
                    compound  metric  data.value
1  CCCCCCCC(=O)O [octanoate]    IC50        2.53

## Input Record request: IC50 value, item O=C(O)COc1ccc(Cl)cc1 [CPA, p-chlorophenoxy acetate]
## Output 6.84
